- System: Escherichia coli
- Conditions Used: Concentration 20 uM; ASSAY_TEST Inhibition of Bacterial Growth; detection method Absorption (OD600); MEDIA CAMHB; plate type 384well; NBS; CORNING #3640; time 18 hr
- Description: Antibacterial activity against Escherichia coli ATCC 25922 (CO-ADD:GN_001); MIC in CAMBH media using NBS plates, by OD(600)
Measured potencies and affinities stand elsewhere.
// returns -1 unless Inhibition is strictly below 6%, in which case 1

[[record]]
molecule = "Cl.O=C1c2cccc3c2[C@H](CCC3)CN1[C@@H]1CN2CCC1CC2 [PALONOSETRON HYDROCHLORIDE]"
label = 1

[[record]]
molecule = "CS(=O)(=O)O.O=C(O[C@@H]1C[C@@H]2C[C@H]3C[C@H](C1)N2CC3=O)c1c[nH]c2ccccc12"
label = -1

[[record]]
molecule = "Cl.O=C1CC[C@@]2(O)[C@H]3Cc4ccc(O)c5c4[C@@]2(CCN3CC2CC2)[C@H]1O5 [NALTREXONE HYDROCHLORIDE]"
label = 1

[[record]]
molecule = "CC(C)CC(N(C)C)C1(c2ccc(Cl)cc2)CCC1 (configuration not stated)"
label = -1

[[record]]
molecule = "CN(C)CCc1c[nH]c2ccc(C[C@H]3COC(=O)N3)cc12"
label = -1


This collection of values is drawn from ChEMBL document CHEMBL4513141.
